target: h-EP4 (Homo sapiens, UniProt P35408)
Sequence (P35408 whole entry): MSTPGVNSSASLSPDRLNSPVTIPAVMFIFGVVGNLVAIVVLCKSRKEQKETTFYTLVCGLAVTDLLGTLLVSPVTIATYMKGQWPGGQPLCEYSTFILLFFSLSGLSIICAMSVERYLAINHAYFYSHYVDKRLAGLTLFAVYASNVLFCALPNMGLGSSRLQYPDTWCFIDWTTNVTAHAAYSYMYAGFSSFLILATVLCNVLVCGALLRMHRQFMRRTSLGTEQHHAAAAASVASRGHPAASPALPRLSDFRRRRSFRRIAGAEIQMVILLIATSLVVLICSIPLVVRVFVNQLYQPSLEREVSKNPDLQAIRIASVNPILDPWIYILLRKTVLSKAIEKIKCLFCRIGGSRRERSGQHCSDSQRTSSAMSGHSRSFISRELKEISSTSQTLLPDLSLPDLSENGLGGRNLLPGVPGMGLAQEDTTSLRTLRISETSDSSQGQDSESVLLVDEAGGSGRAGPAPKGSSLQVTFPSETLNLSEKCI
attribute-measured: Ki (nM)
// return numeric value only (unit: nM, not printed)

(Q) Form field: reported Ki of C/C(=C\C=C\[C@H]1CCC(=O)N1CCc1ccc(C(=O)O)cc1)C(C)C
(A) 164

---

Entries below carry reported Ki on h-EP2 (Homo sapiens).
Sequence (P43116 whole entry): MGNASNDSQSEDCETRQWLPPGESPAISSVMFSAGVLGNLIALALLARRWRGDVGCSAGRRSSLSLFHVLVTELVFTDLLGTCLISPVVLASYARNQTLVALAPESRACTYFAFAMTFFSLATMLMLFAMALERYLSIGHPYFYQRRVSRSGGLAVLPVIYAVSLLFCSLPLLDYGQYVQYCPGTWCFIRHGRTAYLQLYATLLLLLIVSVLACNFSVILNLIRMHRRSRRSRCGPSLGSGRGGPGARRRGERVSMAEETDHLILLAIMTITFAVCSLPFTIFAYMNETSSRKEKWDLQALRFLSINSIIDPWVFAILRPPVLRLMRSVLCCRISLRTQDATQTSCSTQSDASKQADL
Provide only the numeric value, understood in nM.

>>> value("CCCC/C=C(C)/C=C/[C@H]1CCC(=O)N1CCc1ccc(C(=O)O)cc1 [Example 22]")
34
>>> value("C/C(=C\\C=C\\[C@H]1CCC(=O)N1CCc1ccc(C(=O)O)cc1)C(C)C [Example 55]")
36

(Q) Given the entry CC(C)=CCC/C(C)=C/C=C/[C@H]1CCC(=O)N1CCc1ccc(C(=O)O)cc1 [Example 12] , what Ki was observed with h-EP2 (Homo sapiens)?
(A) 750
